- TEST_DETAILS: Cytotoxicity evaluation
- ASSAY_SETUP: human, Cytotoxicity (%), short treatment in the presence of S9 mix; 0.050 mmol/L
READOUT: cytotoxicity at 0.05 mmol/L (%)

CCCCC/C=C\C/C=C\CCCCCCCCP(=O)(OCC)OCC -5.03

====

- TEST_DETAILS: Cytotoxicity evaluation
- ASSAY_SETUP: human, Cytotoxicity (%), short treatment in the presence of S9 mix; 5 mmol/L

COMPOUND	cytotoxicity at 5 mmol/L
CCCCC/C=C\C/C=C\CCCCCCCC(=O)OCC1(C)COC1 [NKS-5]	-6.22%

====

- TEST_DETAILS: Cytotoxicity evaluation
- ASSAY_SETUP: human, Cytotoxicity (%), extended treatment in the absence of S9 mix; 0.025 μg/mL (Table 8)

COMPOUND	cytotoxicity at 0.025 μg/mL, %
CC[C@]1(O)C[C@@H]2CN(CCc3c([nH]c4ccccc34)[C@@](C(=O)OC)(c3cc4c(cc3OC)N(C)[C@H]3[C@@](O)(C(=O)OC)[C@H](OC(C)=O)[C@]5(CC)C=CCN6CC[C@]43[C@@H]65)C2)C1 [Vinblastine, reference compound]	9.29
